The reader will find reported fraction ligated values listed item by item below.
test system: F1*sub RNA substrate (template-directed ligation); assay: fraction ligated after 30 min (ligated reads / total reads); higher = more ligase activity; sequences stand for … in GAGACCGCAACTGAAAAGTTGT…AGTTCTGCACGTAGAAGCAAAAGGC; details: 42 °C
Write no unit; give the number alone.

// known answers, use as guide
- Sequence Content: "TATCACTTTCGAAGACACTTTGGATGGGTTA [3d1504]"
  Readout: "fraction ligated"
  Reported Measurement: 0.382
- Sequence Content: "TATCACTTGTGTAAGCACTTTGGAGGGTTGA [3d1760]"
  Readout: "fraction ligated"
  Reported Measurement: 0.121
- Sequence Content: "TATCACTGTCGTAAGACACTTGGATGGGTTG [3d1446]"
  Readout: "fraction ligated"
  Reported Measurement: 0.807

# evaluate next
Qu. Provide fraction ligated value for the following sequence: TATCACTTGTCGAAGACCTTTGGATGGGTTA [3d1948]
Ans. 0.773

* * *

The reader will find reported fraction ligated values listed item by item below.
tested on: F1*sub RNA substrate (template-directed ligation); experiment: fraction ligated after 30 min (ligated reads / total reads); higher = more ligase activity; sequences stand for … in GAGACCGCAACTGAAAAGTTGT…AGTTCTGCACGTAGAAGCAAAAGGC; conditions: 42 °C

// known answers, use as guide
- Sequence Content: "TATCACTTGTCGTAGAACTTGGATGGGTTGA [3d2014]"
  fraction ligated: 0.845
- Sequence Content: "TATCACTTGTCGTAAGACATTTGATGGTTGA [3d2217]"
  fraction ligated: 0.00686
- Sequence Content: "TATCACTTGCGTAAGACACTTTGGGGGTTGA [3d1694]"
  fraction ligated: 0.122
- Sequence Content: "TATCACTGTCGTAAGACACTTGGATGGTTGA [3d1444]"
  fraction ligated: 0.382
- Sequence Content: "TATCACTTGTCGTAGCACTTTGATGGGTTGA [3d2007]"
  fraction ligated: 0.761
- Sequence Content: "TATCACTTGTCGTAAGACATTTATGGGTTGA [3d2214]"
  fraction ligated: 0.0203
- Sequence Content: "TATCATTGTCGTAAACACTTTGGATGGTTGA [3d1234]"
  fraction ligated: 0.0592
- Sequence Content: "TATCACTTGTCGTAGACACTTTGATGGGTTGA [2d228]"
  fraction ligated: 0.789

# evaluate next
Qu. Provide fraction ligated value for the following sequence: TATCCTTTCGTAAGACACTTTGGATGGGTTGA [2d91]
Ans. 0.786

* * *

test system: F1*sub RNA substrate (template-directed ligation); assay: fraction ligated after 30 min (ligated reads / total reads); higher = more ligase activity; sequences stand for … in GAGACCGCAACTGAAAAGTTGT…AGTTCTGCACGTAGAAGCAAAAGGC; conditions: 42 °C
Readout: fraction ligated
Write no unit; give the number alone.

// known answers, use as guide
- Sequence Content: "TATCACTGTCGTAAGACACTTTGGATGGGTT [3d1462]"
  Target: "F1*sub RNA substrate (template-directed ligation)"
  fraction ligated: 0.365
- Sequence Content: "ATCACTTGTCGTAAGACACTTTGGTGGTTGA [3d267]"
  Target: "F1*sub RNA substrate (template-directed ligation)"
  fraction ligated: 0.0134
- Sequence Content: "TATCACTTGTCGAAGACCTTTGATGGGTTGA [3d1944]"
  Target: "F1*sub RNA substrate (template-directed ligation)"
  fraction ligated: 0.76
- Sequence Content: "TATCCTTGCGTAAGACACTTTGGTGGGTTGA [3d995]"
  Target: "F1*sub RNA substrate (template-directed ligation)"
  fraction ligated: 0.131

Qu. Provide fraction ligated value for the following sequence: TATCATTGCGTAGACACTTTGGATGGGTTGA [3d1159]
Ans. 0.823

Qu. Provide fraction ligated value for the following sequence: TATACTTTCGTAAGACACTTTGGTGGGTTGA [3d807]
Ans. 0.00703

Qu. Provide fraction ligated value for the following sequence: TATACTTGTCGTAAGACACTTTGGTGGTTGA [3d939]
Ans. 0.00845

Qu. Provide fraction ligated value for the following sequence: TATCACTTTCTAAGACATTTGGATGGGTTGA [3d1485]
Ans. 0.818

Qu. Provide fraction ligated value for the following sequence: TATCACTTTCGAAGACACTTTGGATGGGTTGA [2d149]
Ans. 0.797
